tested on: SK-MEL-5 melanoma; test: NCI tumour cell line growth inhibition, 48 h
A collection of compounds and their measured TGI
QUANTITY_KIND: TGI

compound=O=C1C[C@@H]2[C@@H](c3ccccc3)[C@@H]3C(=O)c4ccccc4NC(=O)[C@H]3[C@]2(O)c2ccccc2N1 quantity_kind=TGI reported_value="> 100 µM"
compound=C[C@@H](NC(=O)Cn1c(Cl)nc2ccccc21)c1ccccc1 quantity_kind=TGI reported_value="> 100 µM"
compound="Cc1ccc(C)c(NC(=O)C(=O)C2C(=O)N(c3ccccc3)N=C2N)c1 (stereo unspecified)" quantity_kind=TGI reported_value="> 100 µM"
compound="CC(C)(C)[Si](C)(C)OCCc1ccccc1C1CC2(S(=O)(=O)c3ccccc3)ON1CC2S(=O)(=O)c1ccccc1 (stereo unspecified)" quantity_kind=TGI reported_value="> 100 µM"
compound=CCOC(=O)CC(=O)Nc1cccc2sc3ncccc3c(=O)c12 quantity_kind=TGI reported_value="40.5 µM"
compound="C[C@]12Cc3conc3C(O)=C1CC[C@@H]1C2CC[C@@]2(C)C1CC[C@]2(C)O (stereo partly specified)" quantity_kind=TGI reported_value="30.7 µM"
compound="O=CC(O)C(O)C1OC(=O)c2cc(O)c(O)c(O)c2C2=C(O)C(O)=C3OC(=O)c4c(c(O)c(O)c5c4C3C2C(=O)O5)-c2c(cc(O)c(O)c2O)C(=O)OCC1O (stereo unspecified)" quantity_kind=TGI reported_value="> 100 µM"
compound=COC(=O)c1ccc(C(=O)OC)c2nc3cc(Cl)ccc3nc12 quantity_kind=TGI reported_value="> 100 µM"
compound=COc1cc2c(NC3CCN(C(C)C)CC3)nc(C3CCCCC3)nc2cc1OCCCN1CCCC1 quantity_kind=TGI reported_value="3.11 µM"
compound=COc1ccc(CCc2ccc3c(c2)OCO3)cc1 quantity_kind=TGI reported_value="> 100 µM"
compound=S=c1[nH]n2c(COc3ccc(Cl)cc3)nnc2s1 quantity_kind=TGI reported_value="> 100 µM"
compound=CC(=O)N1C(=O)c2cc3ccccc3cc21 quantity_kind=TGI reported_value="> 100 µM"
compound=Cc1c(NC(=O)CSC(=S)N(C)C)c(=O)n(-c2ccccc2)n1C quantity_kind=TGI reported_value="> 100 µM"
compound="CC(Cc1ccccc1)N(C)Cc1nc(C2CCC([N+](=O)[O-])O2)no1 (stereo unspecified)" quantity_kind=TGI reported_value="24.3 µM"
compound="NC(Cc1cccnn1)C(=O)O (stereo unspecified)" quantity_kind=TGI reported_value="> 100 µM"
compound=O=c1[nH]nc(-c2ccccc2)n1-c1cccc([N+](=O)[O-])c1 quantity_kind=TGI reported_value="> 100 µM"
compound=C/C(O)=C(\C=NC(=S)c1cccnc1)C(=O)Nc1ccccc1C quantity_kind=TGI reported_value="> 100 µM"
compound=CCOC(=O)C1=C(O)C(=O)c2ccoc2C1=O quantity_kind=TGI reported_value="> 100 µM"
compound="CCCS(=O)c1nc(COC(=O)NC)c(COC(=O)NC)n1C (stereo unspecified)" quantity_kind=TGI reported_value="> 100 µM"
compound="CC(NP(=O)(c1ccccc1)c1ccccc1)c1ccccc1 (stereo unspecified)" quantity_kind=TGI reported_value="> 100 µM"
compound=COc1ccc2c(C)cc(N/N=C/c3ccc(C)s3)nc2c1 quantity_kind=TGI reported_value="16 µM"
compound=CC(C)(O)CCc1cccc(C(=O)c2cnn(-c3ccc(F)cc3)c2N)c1 quantity_kind=TGI reported_value="> 25 µM"
compound=Cc1ccc(N=Nc2c(O)ccc3n[nH]nc23)cc1 quantity_kind=TGI reported_value="13.2 µM"
compound=CC(C)(C)C(=O)c1c(C(F)(F)F)n([O-])c2cc(Cl)c(Cl)cc2[n+]1=O quantity_kind=TGI reported_value="1.1 µM"
compound=COc1c(-c2ccc3c(c2)OCO3)oc2cc(O)cc(O)c2c1=O quantity_kind=TGI reported_value="> 100 µM"
compound="CCCCCCCCCC(=O)NC(CCC(=O)N(CCNC(=O)c1nc(-c2ccccc2)oc1-c1ccccc1)Cc1ccccc1)C(=O)O (stereo unspecified)" quantity_kind=TGI reported_value="29.7 µM"
compound=Cc1cc2c3c([n+](C)c4ccc(F)cc4c3c1)-c1cc(F)ccc1N2C quantity_kind=TGI reported_value="22.1 µM"
compound=O=c1[nH]c2ccc(Cl)cc2o1 quantity_kind=TGI reported_value="> 100 µM"
compound=O=C(O)/C(Cl)=C(Cl)/C=N/NC(=O)c1cc2ccccc2cc1O quantity_kind=TGI reported_value="24.6 µM"
compound=COC(=O)c1ccc(NC(=O)c2ccc(NC3=C(Cl)C(=O)N(Cc4ccccc4)C3=O)cc2)cc1 quantity_kind=TGI reported_value="> 100 µM"
compound=COC(=O)[C@@H](NC(=O)[C@H](N)Cc1ccc(N(CCCl)CCCl)cc1)C(C)C quantity_kind=TGI reported_value="10.8 µM"
